All values here come from patent US20210032351A1.

molecular target: T1, human EGFRvIII protein on the cell surface (human, UniProt P00533 25-1210); experiment: FACS on U87MG-EGFRvIII cells
T1 construct: whole, on cells; the cell line is named under assay; also called hEGFRvIII; U87MG-hEGFRvIII
ENDPOINT: pEC50
Just so you know, pEC50 here is -log10 of the concentration in molar units; reply with that number alone.

Using the record for Humanized antibody h63A10A7-20 (antibody, human IgG1, V domains shown, also called VH-g7/VL-g4) VH: QVQLVQSGAEVKKPGASVKVSCKASGYTFISFTMHWVRQAPGQGLEWIGYINPNSGYTKYNQKFKDKATLTRDTSTSTVYMELSSLRSEDTAVYYCTRGGGRGFAYWGQGTLVTVSS VL: DILMTQSPSSLSASVGDRVTITCHASQDINSNIGWLQQKPGKSFKALIYHGTNLEDGVPSRFSGSGSGADYTLTISSLQPEDFATYYCVQYAQFPFTFGQGTKLEIK , report its pEC50.
8.81

Using the record for Chimeric antibody 63A10 (antibody, human IgG1, V domains shown, also called c63A10A7; chimeric antibody c63A10A7) VH: QVQLQQSGAELARPGASVKMSCKASGYTFISFTMHWVKQRPGQGLEWIGYINPNSGYTKYNQKFKDKATLTAGQSSSTAYMQLSSLTSEDSAVYYCTRGGGRGFAYWGQGTLVTVSA VL: DILMTQSPSSMSVSLGDTVTITCHASQDINSNIGWLQQKPGKSFKALIYHGTNLEDGVPSRFSGSGSGADYSLTISSLESEDFADYYCVQYAQFPFTFGSGTKLEIK , report its pEC50.
8.42

Using the record for Humanized antibody h75G7C6-12 (antibody, human IgG1, V domains shown, also called VH-g1/VL-g3) VH: QVQLVQSGAEVKKPGASVKVSCKASGYTFTDYNMDWVRQAPGQGLEWIGDINPNNADTIYNQKFKGRVTLTVDTSTSTVYMELSSLRSEDTAVYYCARGDYDGYYPVYYAMDYWGQGTTVTVSS VL: ENVLTQSPATLSLSPGERATLSCRASSSVSSSYLHWYQQKPGQSPRLLIFSTSNLAAGVPARFSGSGSGTDYTLTISSLEPEDFAVYYCQQYSGYPLTFGGGTKVEIK , report its pEC50.
8.28

Using the record for Humanized antibody h75G7C6-13 (antibody, human IgG1, V domains shown, also called VH-g2/VL-g0) VH: QVQLVQSGAEVKKPGASVKVSCKASGYTFTDYNMDWVKQAPGQGLEWIGDINPNNADTIYNQKFKGRVTLTVDKSTSTVYMELSSLRSEDTAVYYCARGDYDGYYPVYYAMDYWGQGTTVTVSS VL: EIVLTQSPATLSLSPGERATLSCRASSSVSSSYLHWYQQKPGQAPRLLIYSTSNLAAGIPARFSGSGSGTDFTLTISSLEPEDFAVYYCQQYSGYPLTFGGGTKVEIK , report its pEC50.
8.17

Using the record for Humanized antibody h75G7C6-9 (antibody, human IgG1, V domains shown, also called VH-g1/VL-g0) VH: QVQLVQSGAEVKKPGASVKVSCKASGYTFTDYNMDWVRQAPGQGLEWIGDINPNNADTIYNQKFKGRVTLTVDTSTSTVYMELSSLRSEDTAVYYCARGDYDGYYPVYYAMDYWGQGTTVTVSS VL: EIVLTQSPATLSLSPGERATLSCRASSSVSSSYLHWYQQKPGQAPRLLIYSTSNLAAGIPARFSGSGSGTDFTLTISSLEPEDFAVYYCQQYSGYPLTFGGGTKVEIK , report its pEC50.
8.23
